Tested on: MDA-MB-231
test.description: Antiproliferative activity against human MDA-MB-231 cells after 48 hrs by SRB assay
Type: functional, cell-based
condition.set: MDA-MB-231, 48 h
Reported IC50 values for the following molecules.

molecule	IC50
CC(=O)O[C@@H]1C[C@H]2C(C)(C)C(=O)C=C[C@]2(C)[C@H]2CC[C@@]3(C)[C@H](c4ccoc4)/C(=N\OCc4cn(-c5ccccc5C#N)nn4)[C@H]4O[C@]43[C@@]21C	> 100 µM
COc1ccc(OC)c(/C=C/C(=O)O[C@@H]2C[C@H]3C(C)(C)C(=O)C=C[C@]3(C)[C@H]3CC[C@@]4(C)[C@H](c5ccoc5)C(=O)[C@H]5O[C@]54[C@@]32C)c1	> 100 µM
CC(=O)O[C@@H]1C[C@H]2C(C)(C)C(=O)C=C[C@]2(C)[C@H]2CC[C@@]3(C)[C@H](c4ccoc4)/C(=N\OC(=O)c4ccc(Br)cc4)[C@H]4O[C@]43[C@@]21C	> 100 µM
CC(=O)O[C@@H]1C[C@H]2C(C)(C)C(=O)CC[C@]2(C)[C@H]2CC[C@@]3(C)[C@H](C4CCOC4)C(=O)[C@H]4O[C@]43[C@@]21C (stereo not given in full)	> 100 µM
COc1cccc(C(=O)O/N=C2/[C@H]3O[C@]34[C@@]3(C)[C@H](CC[C@@]4(C)[C@@H]2c2ccoc2)[C@@]2(C)C=CC(=O)C(C)(C)[C@@H]2C[C@H]3OC(C)=O)c1	> 100 µM
CC(=O)O[C@@H]1C[C@H]2C(C)(C)C(=O)C=C[C@]2(C)[C@H]2CC[C@@]3(C)[C@H](c4ccoc4)/C(=N\OCc4cn(-c5ccc(C(C)=O)cc5)nn4)[C@H]4O[C@]43[C@@]21C	> 100 µM
CC(=O)O[C@@H]1C[C@H]2C(C)(C)C(=O)C=C[C@]2(C)[C@H]2CC[C@@]3(C)[C@H](c4ccoc4)C(=O)[C@H]4O[C@]43[C@@]21C [EPOXYAZADIRADIONE]	> 100 µM
COc1cc(-n2cc(CO/N=C3/[C@H]4O[C@]45[C@@]4(C)[C@H](CC[C@@]5(C)[C@@H]3c3ccoc3)[C@@]3(C)C=CC(=O)C(C)(C)[C@@H]3C[C@H]4OC(C)=O)nn2)c(OC)cc1Cl	> 100 µM
CC(=O)O[C@@H]1C[C@H]2C(C)(C)C(=O)C(O)C(O)[C@]2(C)[C@H]2CC[C@@]3(C)[C@H](c4ccoc4)C(=O)[C@H]4O[C@]43[C@@]21C (stereo not given in full)	29.9 µM
C#CCO/N=C1/[C@H]2O[C@]23[C@@]2(C)[C@H](CC[C@@]3(C)[C@@H]1c1ccoc1)[C@@]1(C)C=CC(=O)C(C)(C)[C@@H]1C[C@H]2OC(C)=O	> 100 µM
